This document collects pIC50 values reported for Aldo-keto reductase family 1 member B1 (Homo sapiens).
One number for each entry, as −log10 of the molar value.

Example entries begin here.
compound="NC(=O)[C@H]1C[C@]2(NC(=O)NC2=O)c2cc(F)ccc2O1 [(R,S)-FIDARESTAT]" observed_result=6.24
compound=NC(=O)[C@@H]1C[C@]2(NC(=O)NC2=O)c2cc(F)ccc2O1 observed_result=7.52

Need pIC50 of NC(=O)[C@@H]1C[C@@]2(NC(=O)NC2=O)c2cc(F)ccc2O1 [(S,R)-FIDARESTAT] , thanks.
4.96
